target: N-type Ca2+ channel (Homo sapiens); construct: host or cells: IMR-32 cells, differentiated with dibutyryl cAMP and bromodeoxyuridine; test: Measurement of N-type Ca2+ channel blocking potencies in IMR-32 cells using the fluorescent Ca2+ indicator Indo-1; assay type: cell-based; settings: 10 μM compound, 5 μM nitrendipine, read-out: IMR 32 % of Blockade @ 10 μM
Sequence (Q00975 whole entry): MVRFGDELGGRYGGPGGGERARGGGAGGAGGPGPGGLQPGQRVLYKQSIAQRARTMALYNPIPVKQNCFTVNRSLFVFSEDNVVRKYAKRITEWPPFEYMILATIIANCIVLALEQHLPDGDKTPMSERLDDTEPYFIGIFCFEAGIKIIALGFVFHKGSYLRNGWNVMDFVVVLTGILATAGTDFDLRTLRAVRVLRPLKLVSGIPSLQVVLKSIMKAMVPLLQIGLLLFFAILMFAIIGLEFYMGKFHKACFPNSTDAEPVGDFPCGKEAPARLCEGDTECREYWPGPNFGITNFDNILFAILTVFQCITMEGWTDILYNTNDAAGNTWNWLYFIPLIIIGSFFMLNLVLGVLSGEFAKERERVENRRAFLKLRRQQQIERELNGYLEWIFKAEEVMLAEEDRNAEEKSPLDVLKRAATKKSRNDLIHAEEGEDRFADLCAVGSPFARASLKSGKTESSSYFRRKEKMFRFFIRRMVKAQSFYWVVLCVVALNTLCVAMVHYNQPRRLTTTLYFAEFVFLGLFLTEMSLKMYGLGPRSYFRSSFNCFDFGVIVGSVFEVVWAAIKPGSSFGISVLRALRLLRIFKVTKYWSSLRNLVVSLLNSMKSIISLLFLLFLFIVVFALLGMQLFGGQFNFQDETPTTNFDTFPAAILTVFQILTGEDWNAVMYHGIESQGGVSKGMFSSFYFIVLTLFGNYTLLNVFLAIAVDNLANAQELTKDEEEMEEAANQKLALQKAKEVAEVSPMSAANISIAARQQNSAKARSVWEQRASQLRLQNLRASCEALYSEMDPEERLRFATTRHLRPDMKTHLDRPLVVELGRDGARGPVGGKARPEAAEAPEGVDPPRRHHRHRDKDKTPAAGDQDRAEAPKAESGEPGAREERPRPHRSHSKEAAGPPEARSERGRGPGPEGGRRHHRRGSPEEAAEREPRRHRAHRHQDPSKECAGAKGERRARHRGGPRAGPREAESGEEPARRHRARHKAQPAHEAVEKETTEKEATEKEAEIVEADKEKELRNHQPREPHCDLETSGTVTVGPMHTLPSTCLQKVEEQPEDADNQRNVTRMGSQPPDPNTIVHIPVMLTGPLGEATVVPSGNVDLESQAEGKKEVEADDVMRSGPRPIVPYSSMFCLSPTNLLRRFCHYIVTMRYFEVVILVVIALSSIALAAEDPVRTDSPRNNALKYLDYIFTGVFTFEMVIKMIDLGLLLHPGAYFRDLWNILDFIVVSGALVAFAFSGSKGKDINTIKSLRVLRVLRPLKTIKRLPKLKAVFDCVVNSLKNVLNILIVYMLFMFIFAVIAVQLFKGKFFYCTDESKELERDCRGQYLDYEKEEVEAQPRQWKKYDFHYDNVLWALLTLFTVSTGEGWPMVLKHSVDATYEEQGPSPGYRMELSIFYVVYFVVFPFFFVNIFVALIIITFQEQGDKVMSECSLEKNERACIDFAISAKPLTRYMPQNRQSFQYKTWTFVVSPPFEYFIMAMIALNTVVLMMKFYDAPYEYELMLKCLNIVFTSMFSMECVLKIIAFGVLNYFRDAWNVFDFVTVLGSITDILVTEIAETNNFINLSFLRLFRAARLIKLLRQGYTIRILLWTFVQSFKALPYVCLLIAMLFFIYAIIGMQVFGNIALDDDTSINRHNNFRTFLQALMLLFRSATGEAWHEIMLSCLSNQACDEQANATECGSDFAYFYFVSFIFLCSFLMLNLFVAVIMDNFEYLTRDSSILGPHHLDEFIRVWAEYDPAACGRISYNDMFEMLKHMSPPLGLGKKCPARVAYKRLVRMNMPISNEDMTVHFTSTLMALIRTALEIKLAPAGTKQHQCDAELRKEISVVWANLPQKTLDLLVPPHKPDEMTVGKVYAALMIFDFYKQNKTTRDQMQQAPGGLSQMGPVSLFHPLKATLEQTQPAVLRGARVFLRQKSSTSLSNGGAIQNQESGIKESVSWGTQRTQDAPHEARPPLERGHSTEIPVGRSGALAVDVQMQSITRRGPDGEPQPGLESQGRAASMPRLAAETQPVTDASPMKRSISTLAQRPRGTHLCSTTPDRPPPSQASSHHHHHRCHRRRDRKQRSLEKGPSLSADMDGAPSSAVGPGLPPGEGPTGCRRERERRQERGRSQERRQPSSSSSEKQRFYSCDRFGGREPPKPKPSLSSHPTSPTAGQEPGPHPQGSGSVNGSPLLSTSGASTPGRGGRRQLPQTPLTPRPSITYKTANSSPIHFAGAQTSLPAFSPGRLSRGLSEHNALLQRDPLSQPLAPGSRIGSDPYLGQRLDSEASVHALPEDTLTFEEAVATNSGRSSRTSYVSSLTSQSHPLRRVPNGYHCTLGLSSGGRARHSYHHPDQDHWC
Sequence (P54289 25-956 partner limits assumed): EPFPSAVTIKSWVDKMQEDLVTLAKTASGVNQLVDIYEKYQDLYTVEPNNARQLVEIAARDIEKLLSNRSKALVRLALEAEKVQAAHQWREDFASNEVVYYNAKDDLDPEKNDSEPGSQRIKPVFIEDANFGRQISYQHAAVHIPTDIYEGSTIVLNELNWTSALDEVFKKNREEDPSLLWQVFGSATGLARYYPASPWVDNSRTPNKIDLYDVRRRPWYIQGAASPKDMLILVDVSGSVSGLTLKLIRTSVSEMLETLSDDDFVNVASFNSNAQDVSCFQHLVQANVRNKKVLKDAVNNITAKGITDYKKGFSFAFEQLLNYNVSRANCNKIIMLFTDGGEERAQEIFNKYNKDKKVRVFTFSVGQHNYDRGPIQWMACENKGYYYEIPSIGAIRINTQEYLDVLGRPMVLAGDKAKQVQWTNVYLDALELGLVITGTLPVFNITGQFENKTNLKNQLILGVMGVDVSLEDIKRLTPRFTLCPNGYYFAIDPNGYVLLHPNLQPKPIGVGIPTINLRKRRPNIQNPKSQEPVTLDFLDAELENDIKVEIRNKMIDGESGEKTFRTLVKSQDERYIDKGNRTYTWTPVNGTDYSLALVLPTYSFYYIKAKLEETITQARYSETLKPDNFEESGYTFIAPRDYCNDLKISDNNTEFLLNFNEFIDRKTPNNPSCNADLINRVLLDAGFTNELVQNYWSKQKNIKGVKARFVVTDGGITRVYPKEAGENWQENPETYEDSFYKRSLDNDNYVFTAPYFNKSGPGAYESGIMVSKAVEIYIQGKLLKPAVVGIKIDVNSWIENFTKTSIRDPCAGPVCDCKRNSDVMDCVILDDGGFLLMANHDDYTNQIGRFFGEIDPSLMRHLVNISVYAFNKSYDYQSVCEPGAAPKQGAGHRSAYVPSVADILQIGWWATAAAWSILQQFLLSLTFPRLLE
Sequence (P54289 957-1103 partner limits assumed): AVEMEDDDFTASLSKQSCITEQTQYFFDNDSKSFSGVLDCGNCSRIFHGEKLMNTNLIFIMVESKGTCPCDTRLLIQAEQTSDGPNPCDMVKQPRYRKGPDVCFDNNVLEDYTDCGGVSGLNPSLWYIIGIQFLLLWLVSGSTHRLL
Sequence (Q02641 whole entry partner): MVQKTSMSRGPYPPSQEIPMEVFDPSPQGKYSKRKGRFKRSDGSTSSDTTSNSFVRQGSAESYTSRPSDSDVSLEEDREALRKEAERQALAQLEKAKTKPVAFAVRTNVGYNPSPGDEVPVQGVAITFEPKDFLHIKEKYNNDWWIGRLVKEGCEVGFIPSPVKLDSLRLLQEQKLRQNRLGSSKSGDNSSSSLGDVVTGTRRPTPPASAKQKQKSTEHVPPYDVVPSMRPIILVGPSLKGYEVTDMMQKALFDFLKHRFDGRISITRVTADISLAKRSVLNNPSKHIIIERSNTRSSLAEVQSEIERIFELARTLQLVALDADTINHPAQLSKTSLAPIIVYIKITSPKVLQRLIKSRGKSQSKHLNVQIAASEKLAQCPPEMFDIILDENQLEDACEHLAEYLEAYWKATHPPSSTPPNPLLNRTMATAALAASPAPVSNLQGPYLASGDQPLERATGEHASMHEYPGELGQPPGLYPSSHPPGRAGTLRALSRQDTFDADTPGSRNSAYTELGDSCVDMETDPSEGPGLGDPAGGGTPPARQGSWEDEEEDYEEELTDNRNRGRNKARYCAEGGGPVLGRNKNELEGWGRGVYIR
Please respond with reported inhibition at 10 µM for every item in the list.
One number for each entry, in %.

>>> print(df.to_string())
                                   compound                       system_tested  uom  test_value
0  CCC(C)[C@H](N)C(=O)N1CCC(N(CC=C(C)C)c2ccc(OCc3ccccc3)cc2)CC1 (stereo partly drawn) [Example 22]  N-type Ca2+ channel (Homo sapiens)    %          90
1  CC(C)C[C@H](NC(=O)N1CCCCCC1)C(=O)NC(C)(C)CN(c1ccc(OCc2ccccc2)cc1)C1C=CCCC1 (stereo partly drawn) [Example 8]  N-type Ca2+ channel (Homo sapiens)    %          76
2  CC(C)CCN(c1ccc(OCc2ccccc2)cc1)C1CCN(C(=O)[C@@H](N)CC(C)C)CC1 [Example 44]  N-type Ca2+ channel (Homo sapiens)    %         100
3  CC(C)=CCN(c1ccc(OCc2ccccc2)cc1)C1CCN(C(=O)[C@H](N)CC(C)C)CC1 [Example 21]  N-type Ca2+ channel (Homo sapiens)    %          92
4  CC(C)=CCN(c1ccc(OCc2ccccc2)cc1)C1CCCN(C(=O)[C@H](CC(C)C)NC(=O)N2CCCCCC2)C1 (mixture of isomers) [Example 46]  N-type Ca2+ channel (Homo sapiens)    %          91

Go through the items and report each one's inhibition at 10 µM.
1. CC(C)=CCN(c1ccc(OCc2ccccc2)cc1)C1CCCN(C(=O)[C@@H](N)CC(C)C)C1 (mixture of isomers) [Example 45]
2. CC(C)=CCN(CC(C)(C)NC(=O)[C@H](CC(C)C)N(C)CC=C(C)C)c1ccc(OCc2ccccc2)cc1 [Example 10]
3. CC(C)=CCN(c1ccc(OCc2ccccc2)cc1)C1CCN(C[C@@H](N)CC(C)C)CC1 [Example 47]
4. CC(C)CCN(C)[C@@H](CC(C)C)C(=O)NC(C)(C)CN(c1ccc(OCc2ccccc2)cc1)C1C=CCCC1 (stereo partly drawn) [Example 17]

Data returned:
100
82
100
80
